# Tested on: SF-268
# Test Name: Growth inhibitory effect, one hour exposure (IncuCyte Zoom)
# Assay type: cell-based, human
# Condition Notes: SF-268, CNS
Assay Readout: pIC50
Scale for pIC50: -log10 of concentration given in mol/L; no unit attached.

Exercise: I am curious: what pIC50 value has been reported for CC(C)[C@]12O[C@H]1[C@@H]1O[C@@]13[C@@]1(C)CCC4=C(COC4=O)[C@@H]1C[C@@H]1O[C@@]13C2=O [Triptonide] ?
Solution: 4.93

---

# System: CAKI-1
# Test Name: Growth inhibitory effect, one hour exposure (IncuCyte Zoom)
# Type: cell-based, human
# Condition Notes: CAKI-1, Renal
Assay Readout: IC50 (µM)
Numbers only; they are read as µM.

Exercise: # input molecule: CC(C)[C@]12O[C@H]1[C@@H]1O[C@@]13[C@@]1(C)CCC4=C(COC4=O)[C@@H]1C[C@@H]1O[C@@]13C2=O [Triptonide] ; wanted: its IC50
Solution: 6.15
